meta.source: ChEMBL document CHEMBL1158433

IC50 listing for selected molecules.
Biological target: Histamine H3 receptor (Homo sapiens)
Sequence (Q9Y5N1 whole entry): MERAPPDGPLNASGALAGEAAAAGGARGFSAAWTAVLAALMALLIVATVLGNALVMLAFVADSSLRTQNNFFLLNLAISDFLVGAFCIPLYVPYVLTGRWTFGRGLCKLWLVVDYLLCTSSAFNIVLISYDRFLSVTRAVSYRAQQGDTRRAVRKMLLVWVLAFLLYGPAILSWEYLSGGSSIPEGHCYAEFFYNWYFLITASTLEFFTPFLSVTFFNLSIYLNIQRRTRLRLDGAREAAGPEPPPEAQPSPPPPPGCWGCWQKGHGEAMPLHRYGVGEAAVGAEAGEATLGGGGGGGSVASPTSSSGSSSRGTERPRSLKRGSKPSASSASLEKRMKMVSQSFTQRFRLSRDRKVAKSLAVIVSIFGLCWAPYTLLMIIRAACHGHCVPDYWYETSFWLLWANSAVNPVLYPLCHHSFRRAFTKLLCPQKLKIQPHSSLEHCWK
Write the numeric value and follow it with the unit.

Check out these entries, answers already filled in.
{"MOLECULE": "CN1CCCC(COc2ccc(CCNC(=O)c3ccc(Br)o3)cc2Br)C1 (stereo not given)", "IC50": "4560 nM"}
{"MOLECULE": "O=C(NCCc1ccc(OCCN2CCCC2)c(Br)c1)c1cnco1", "IC50": "80 nM"}
{"MOLECULE": "Cn1cccc1C(=O)NCCc1ccc(OCCN2CCCC2)c(Br)c1", "IC50": "310 nM"}
{"MOLECULE": "O=C(NCCc1ccc(OCCN2CCCC2)c(Br)c1)c1cncs1", "IC50": "260 nM"}

Give the measured IC50 of O=C(NCCc1ccc(OCCN2CCC(F)C2)c(Br)c1)c1cc(Br)cs1 (single isomer, unassigned; enantiomer 1) .
2110 nM
